Biological target: T1, tetanus toxoid (Clostridium tetani, production strain …, UniProt P04958, biotin (biotinylated antigen))
T1 construct: also called TT
T1 sequence (P04958 whole entry): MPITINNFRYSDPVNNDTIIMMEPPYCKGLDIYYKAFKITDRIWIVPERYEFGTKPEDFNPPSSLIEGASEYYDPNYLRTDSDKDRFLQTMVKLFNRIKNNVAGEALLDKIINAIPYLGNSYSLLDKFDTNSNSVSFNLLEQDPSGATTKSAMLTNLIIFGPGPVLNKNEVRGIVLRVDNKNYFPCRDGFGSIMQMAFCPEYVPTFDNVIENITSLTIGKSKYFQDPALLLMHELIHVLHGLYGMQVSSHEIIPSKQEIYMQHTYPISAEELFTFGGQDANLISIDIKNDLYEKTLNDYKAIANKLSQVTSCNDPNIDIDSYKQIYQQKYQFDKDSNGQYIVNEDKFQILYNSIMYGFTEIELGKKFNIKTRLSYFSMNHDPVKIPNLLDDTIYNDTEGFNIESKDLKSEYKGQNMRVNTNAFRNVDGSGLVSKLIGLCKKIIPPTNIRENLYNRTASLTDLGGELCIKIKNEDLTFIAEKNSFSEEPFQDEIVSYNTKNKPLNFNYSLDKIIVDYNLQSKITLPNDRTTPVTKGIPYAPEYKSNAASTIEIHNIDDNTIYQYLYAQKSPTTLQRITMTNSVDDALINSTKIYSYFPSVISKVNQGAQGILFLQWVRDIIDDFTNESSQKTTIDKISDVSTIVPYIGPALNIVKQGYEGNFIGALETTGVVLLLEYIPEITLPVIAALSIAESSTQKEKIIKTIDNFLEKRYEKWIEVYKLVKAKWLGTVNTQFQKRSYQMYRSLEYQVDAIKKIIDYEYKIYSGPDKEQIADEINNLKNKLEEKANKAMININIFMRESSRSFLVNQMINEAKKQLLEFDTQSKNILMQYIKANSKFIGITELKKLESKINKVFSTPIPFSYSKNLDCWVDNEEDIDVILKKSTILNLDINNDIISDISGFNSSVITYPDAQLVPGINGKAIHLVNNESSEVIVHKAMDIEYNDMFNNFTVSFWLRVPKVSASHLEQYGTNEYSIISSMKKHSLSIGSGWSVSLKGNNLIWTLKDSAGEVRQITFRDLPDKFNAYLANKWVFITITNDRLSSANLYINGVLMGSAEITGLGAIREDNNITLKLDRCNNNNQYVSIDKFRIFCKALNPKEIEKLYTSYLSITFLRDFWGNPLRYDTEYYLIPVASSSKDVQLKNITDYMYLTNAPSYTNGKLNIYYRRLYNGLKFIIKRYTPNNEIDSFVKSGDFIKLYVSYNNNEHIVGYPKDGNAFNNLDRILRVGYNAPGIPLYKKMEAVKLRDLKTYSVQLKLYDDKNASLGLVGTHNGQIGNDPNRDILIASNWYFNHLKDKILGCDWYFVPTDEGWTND
Assay: BLI
Provide the recorded koff for the entries that follow.
Write the number in s⁻¹ without appending the unit.

Req: Entry under review: TT-Ab7 (antibody, V domains shown, IgG1) VH: EVQLVESGGGWVQPGGSLRLSCAASGFTFNSFGSYGMSWVRQAPGKGLEWVSHISASGAATYYADSVKGRFTISRDNSKNTLLLQMNDLRGEDTATYYCARSVQQYLGLLGYWGQGTLVTVSS VL: QSVLTQSPSASASLGATVKLTCTLSSGHTNYAIAWHQLQPQKAPRYLLKISNDGSHKRGDGIPDRFSGSSSGAERYLTISSLQSEDEAEYYCQTWGAGMGMFGGGTKLTVL . Reported koff?
Resp: 3.46e-06

Req: Dear colleague, I am looking for the recorded koff of the following binder: TT-Ab4 (antibody, V domains shown, IgG1) VH: EVQLVQSGAEMKKPGSSVKVSCRMSGGKFNNYAMSWVRQAPGQGLEWVGGIIPVLGTANYAQKFQDRVAITADKSTNTAYMELSSLRSDDTAVYYCARVWGTVVTQGPSQVQYNHYGMDVWGQGTTVTVSS VL: DIQLTQSPSSLSASVGDRVTITCRATQSISSSLNWYQHKPGKAPNLLISAASNLQSGVPSRFSGSGSRTDFTLTITNLQPEDFATYYCQQSYTTPLTFGGGTKVEIK
Resp: 2.27e-06

Req: Record request: koff value, item TT-Ab10 (antibody, V domains shown, IgG1) VH: EVQLVESGGGLVQPGGSLRVSCGASGFTFANFWMSWVRQAPGKGLEWVANINQDGNERKYVDSVKGRFTISRDNDKNSLYLQMNSLRAEDTAVYFCAREYGSYWRTYYFDDWGQGTLVTVSS VL: DIVMTQSPATLSLSPGERATLSCRASQSVSNYLAWYQQKPGQAPRLLIYDASNRASGTPARFSGSGFGTDFTLTISSLDPEDFAVYYCQQGSNWLTFGGGTKVEIK
Resp: 0.000243
